Form field: pIC50 (one value per entry).
Target: human ICMT (Homo sapiens (Human), UniProt O60725)
Sequence (O60725 whole entry): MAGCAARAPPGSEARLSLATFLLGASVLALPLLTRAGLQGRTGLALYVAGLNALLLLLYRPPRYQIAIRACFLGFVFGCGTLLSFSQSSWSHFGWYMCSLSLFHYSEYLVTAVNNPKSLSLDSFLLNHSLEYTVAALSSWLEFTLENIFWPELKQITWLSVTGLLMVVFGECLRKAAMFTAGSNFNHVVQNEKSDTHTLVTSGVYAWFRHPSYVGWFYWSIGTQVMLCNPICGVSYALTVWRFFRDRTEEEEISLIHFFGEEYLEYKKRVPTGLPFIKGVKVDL
Test: ICMT biochemical assay (Methyltransferase-Glo)
Conditions: ICMT membrane extract from Sf-9 cells; 30 min preincubation, 90 min reaction
pIC50: −log10 of the molar value.
RESULT TYPE: pIC50

INSERT INTO results (compound, recorded_value) VALUES
  ('Cc1nccn1-c1cccc(OCCOc2ccc(Cl)cc2F)c1 [Compound 102]', 7.17),
  ('Cc1nccn1-c1cccc(OCCOc2ccc(C#N)cn2)c1 [Compound 10]', 7.10),
  ('Cc1nccn1-c1cccc(OCCOc2ccc(C#N)cc2OC(F)(F)F)c1 [Compound 36]', 6.85),
  ('Cn1nccc1-c1cc(OCCOc2ccc(Br)cc2F)ccn1 [Compound 121]', 7.15),
  ('Cc1nccn1-c1cccc(OCCOc2ccc(F)cc2C#N)c1 [Compound 114]', 7.09),
  ('Cc1nccn1-c1cccc(OCCOc2ncc(C#N)cc2F)c1 [Compound 74]', 7.19),
  ('C#Cc1ccc(OCCOc2cccc(-n3ccnc3C)c2)cc1 [Compound 26]', 7.16),
  ('Cn1nccc1-c1cc(OCCOc2ncc(C#N)cc2F)ccc1F [Compound 107]', 6.82),
  ('Cc1nccn1-c1cc(OCCOc2ccc(F)cc2C#N)ccn1 [Compound 119]', 7.10);

---

Target: human ICMT (Homo sapiens (Human), UniProt O60725)
Assay: ICMT biochemical assay (Methyltransferase-Glo)
Settings: ICMT membrane extract from Sf-9 cells; 30 min preincubation, 90 min reaction
RESULT TYPE: IC50

INSERT INTO measurements (molecule, recorded_value) VALUES
  ('Cn1nccc1-c1cncc(OCCOc2ccc(C#N)cc2F)c1 [Compound 92]', '0.3 to 1 µM'),
  ('Cc1nccn1-c1cc(OCCOc2ccc(C#N)cc2)ccn1 [Compound 85]', '0.015 µM'),
  ('Cn1nccc1-c1cc(OCCOc2ccc(Cl)cc2F)ccn1 [Compound 101]', '0.029 µM'),
  ('Cc1nccn1-c1cc(OCCOc2ccc(Cl)cc2)ccn1 [Compound 115]', '0.16 µM'),
  ('N#Cc1cnc(OCCOc2cccc(-n3ccnc3C3CC3)c2)c(F)c1 [Compound 83]', '0.0037 µM'),
  ('Cc1nccn1-c1cc(OCCOc2ccc(C#N)cn2)ccc1F [Compound 109]', '0.17 µM'),
  ('Cc1nccn1-c1cc(OCCOc2ccc(C#N)cc2F)ccn1 [Compound 53]', '0.00044 µM'),
  ('Cc1nccn1-c1cc(OCCOc2ccc(C#N)cc2Cl)ccn1 [Compound 24]', '0.001 µM'),
  ('Cc1nccn1-c1cccc(OCCOc2ccc(C#N)cc2F)n1 [Compound 86]', '0.017 µM'),
  ('Cc1cc(C#N)ccc1O[C@@H](C)COc1cccc(-n2ccnc2C2CC2)c1 [Compound 49]', '0.0003 µM'),
  ('Cc1nccn1-c1cc(OCCOc2ccc(C#N)cn2)ccn1 [Compound 70]', '0.027 µM'),
  ('Cn1nccc1-c1cccc(OCCOc2ccc(C#N)cc2F)n1 [Compound 106]', '0.3 to 1 µM'),
  ('Cn1nccc1-c1cccc(OCCOc2ccc(Cl)cc2)c1 [Compound 110]', '0.27 µM'),
  ('Cn1nccc1-c1cc(OCCOc2ncc(C#N)cc2F)ccn1 [Compound 97]', '0.47 to 1 µM'),
  ('Cn1nccc1-c1cc(OCCOc2ccc(Cl)cc2C#N)ccn1 [Compound 98]', '0.01 µM'),
  ('N#Cc1ccc(OCCOc2ccnc(-n3ccnc3C3CC3)c2)cc1 [Compound 89]', '0.0028 µM'),
  ('Cc1nccn1-c1cccc(O[C@H](C)COc2ccc(C#N)cc2Cl)c1 [Compound 32]', '0.2 µM'),
  ('Cc1nccn1-c1cccc(OCC(C)Oc2ccc(C#N)cc2Cl)c1 (centres unmarked) [Compound 44]', '0.78 µM'),
  ('COc1cc(C#N)ccc1OCCOc1cccc(-n2ccnc2C2CC2)c1 [Compound 19]', '0.0045 µM'),
  ('N#Cc1ccc(OCCOc2cccc(-c3cncs3)c2)c(Cl)c1 [Compound 11]', '0.02 µM'),
  ('Cc1nccn1-c1cc(OCCOc2ncc(C#N)cc2F)ccn1 [Compound 91]', '0.12 µM'),
  ('Cc1nccn1-c1cc(OCCOc2ccc(Br)cc2F)ccn1 [Compound 104]', '0.0017 µM'),
  ('N#Cc1ccc(OCCOc2cccc(-n3cncn3)c2)cc1 [Compound 1]', '0.56 µM');
